Molecular target: T1, Lsb3, P43603
T1 sequence (P43603 385-451, looked up): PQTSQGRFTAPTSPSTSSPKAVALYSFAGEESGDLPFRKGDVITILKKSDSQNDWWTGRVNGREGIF
Assay: SPOT array
Conditions: median of control spots 406
measured attribute: SPOT intensity
Please give only the number in your answer, with no unit.

Guide cases for SPOT intensity, answers given:
LEFRAILFIPKRAPF
26
SHRLWLYAAPKRPKT
5
SRSKPLPLTPNSKYN
0

Please look at the following binder next.
Please give the measured SPOT intensity for this binder: TIRRRAPLSLLESHT 0

Values compiled from paper PMC2756588.
